B1: TPR t1 (parent)
chain: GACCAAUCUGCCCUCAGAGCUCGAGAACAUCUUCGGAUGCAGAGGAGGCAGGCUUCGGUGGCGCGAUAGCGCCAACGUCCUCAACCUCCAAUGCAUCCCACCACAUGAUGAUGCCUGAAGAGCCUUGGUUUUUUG

variants of: B1; test: polymerase ribozyme fitness, log enrichment relative to wild type (log ratio); higher = more active; in vitro selection for triplet polymerase activity
Class key for polymerase ribozyme fitness (log ratio) values: group A = under -4, group B = from -4 up to -1, group C = -1 and over

Check out these entries, answers already filled in.
VARIANT_DESCRIPTOR	CAT
A46G G63C A84G C88U C124U	group C
C3A C12G C56G C123U	group C
C13U C15U U59A A84C A90C U106G U130A	group A
C11U C15U G61A U78A G93A	group B
G42A G71U U130G	group A
C56U G135A	group C
C73G C94G	group B
A27C C28U	group A

Inquiry: Record A5G U33A C124U — which class?
Reply text: group B

Inquiry: Which category does the recorded polymerase ribozyme fitness (log ratio) put C3U C40U G117U in?
Reply text: group B

Inquiry: # classify by polymerase ribozyme fitness (log ratio) band: A6C G52U C70G A74U G120C
Reply text: group A

Inquiry: Place this variant in its band: G36C C64U
Reply text: group B

Inquiry: Textbook exercise: identify the category of the variant given here, G93U C123U , according to its measured value.
Reply text: group C

Inquiry: Looking at U9C G63U C104U , which class would you pick?
Reply text: group C

Inquiry: Which band does U7A C12U G113C fall in?
Reply text: group B

Inquiry: Could you place A46U G60A C80A A121G in its proper category? Many thanks.
Reply text: group B

Inquiry: Which bin should I file G36C A37G C79A under?
Reply text: group B

Inquiry: Which category does the recorded polymerase ribozyme fitness (log ratio) put A24G C40G G52U in?
Reply text: group A

Inquiry: Input G63C G107A ; output its category
Reply text: group A

Inquiry: Class (by measured polymerase ribozyme fitness (log ratio)) for C64U C115U
Reply text: group C

Inquiry: For this variant, which bin applies? C8G C11G U96A
Reply text: group C

Inquiry: Category of A111C G113U , please.
Reply text: group B

Inquiry: Sort into band: C13A A74G C86A C101G
Reply text: group A
